Just for reference, patent US20110135573A1 is where these values come from.

- system tested: T1, Human MMP-9 catalytic domain (BIOMOL, SE-244) (human, UniProt P14780 107-457, limits assumed)
- T1 construct: domain: catalytic domain; also called Cat-huMMP-9; cat-huMMP-9
- T1 sequence (P14780 107-457 limits assumed): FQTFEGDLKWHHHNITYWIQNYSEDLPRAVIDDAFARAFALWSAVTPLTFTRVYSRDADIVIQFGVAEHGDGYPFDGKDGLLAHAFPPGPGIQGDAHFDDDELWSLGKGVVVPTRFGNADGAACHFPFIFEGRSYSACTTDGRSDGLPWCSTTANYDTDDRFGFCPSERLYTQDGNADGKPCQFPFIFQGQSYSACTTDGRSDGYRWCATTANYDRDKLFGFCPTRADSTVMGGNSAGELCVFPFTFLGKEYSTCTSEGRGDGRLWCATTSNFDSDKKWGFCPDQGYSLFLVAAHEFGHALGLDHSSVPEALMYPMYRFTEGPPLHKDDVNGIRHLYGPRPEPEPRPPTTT
- method notes: Ki,app, enzyme inhibition assay (fluorogenic peptide substrate), IgG
property measured: Ki (nM)
API: value field is a number in nM; no unit string.

// solved cases for Ki follow
binder	Ki / nM
X0106-B02 (antibody, V domains shown, Produced and tested as IgG1; germlined, optimized version of M0276-F11) VH: EVQLLESGGGLVQPGGSLRLSCAASGFTFSWYDMWWVRQAPGKGLEWVSVIYSSGGPTFYADSVKGRFTISRDNSKNTLYLQMNSLRAEDTAVYYCAKDRAYGDYVGWNGFDYWGQGTLVTVSS VL: EIVLTQSPATLSLSPGERATLSCRASQSISSFLAWYQQKPGQAPRLLIYDASYRATGIPARFSGSGSGTDFTLTISSLEPEDFAVYYCQQRGNWPITFGQGTRLEIK	0.08
X0106-F05 (antibody, V domains shown, Produced and tested as IgG1; germlined, optimized version of M0307-F04) VH: EVQLLESGGGLVQPGGSLRLSCAASGFTFSLYDMWWVRQAPGKGLEWVSVIYSSGGYTGYADSVKGRFTISRDNSKNTLYLQMNSLRAEDTAVYYCAKDRAYGDYVGWNGFDYWGQGTLVTVSS VL: EIVLTQSPATLSLSPGERATLSCRASQSISSFLAWYQQKPGQAPRLLIYDASYRATGIPARFSGSGSGTDFTLTISSLEPEDFAVYYCQQRGNWPITFGQGTRLEIK	0.15
X0106-A01 (antibody, V domains shown, Produced and tested as IgG1; germlined, optimized version of M0256-D11; also called X106-A01; X106-A01 IgG) VH: EVQLLESGGGLVQPGGSLRLSCAASGFTFSHYDMWWVRQAPGKGLEWVSVIYSSGGPTFYADSVKGRFTISRDNSKNTLYLQMNSLRAEDTAVYYCAKDRAYGDYVGWNGFDYWGQGTLVTVSS VL: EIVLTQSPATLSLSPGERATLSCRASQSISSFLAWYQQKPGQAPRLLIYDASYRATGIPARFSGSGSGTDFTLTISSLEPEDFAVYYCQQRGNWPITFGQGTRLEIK	0.1

Quick check: Ki of X0106-E04 (antibody, V domains shown, Produced and tested as IgG1; germlined, optimized version of M0275-D03; also called X0106-E4) VH: EVQLLESGGGLVQPGGSLRLSCAASGFTFSQYDMWWVRQAPGKGLEWVSVIYPSGTTFYADSVKGRFTISRDNSKNTLYLQMNSLRAEDTAVYYCAKDRAYGDYVGWNGFDYWGQGTLVTVSS VL: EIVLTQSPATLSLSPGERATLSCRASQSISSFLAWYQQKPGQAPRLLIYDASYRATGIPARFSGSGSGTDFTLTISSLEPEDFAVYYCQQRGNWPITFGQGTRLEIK ?
0.13
